# Test system: NCI/ADR-RES ovarian
# protocol_text: NCI-60 one-dose screen, 48 h
# run_parameters: 10 µM unless noted
This is part of a sample that, as a whole, favours compounds with a hit. Of some 83,000 tested, about 20% had one in any assay. The source made the active and inactive calls. How the source made its calls: active means growth percent below 10; inactive means the rest.
Hello, when you answer, please use one of the following outcomes: active, inactive

In: How did this test come out for `Fc1ccc2c(-c3cncn3CCc3ccccc3)c[nH]c2c1` ?
Out: inactive

In: How did this test come out for `Cc1ccc(-n2c3c(c(-c4ccccc4)c2-c2ccccc2)C2=NCCN2C=N3)cc1` ?
Out: inactive

In: How did this test come out for `COC(=O)/C=C1\S/C(=N\NC(=O)c2cc3ccc2/C=C\c2ccc(cc2)/C=C\3)N(Cc2ccccc2)C1=O` ?
Out: inactive

In: How did this test come out for `Oc1ccc(OCCOc2ccc(O)cc2)cc1` ?
Out: inactive

In: How did this test come out for `CCNC(=O)Oc1ccc(/C(=C(\C)c2ccccc2)c2ccc(OCCN(CC)CC)cc2)cc1` ?
Out: inactive

In: How did this test come out for `COc1ccc(C(=O)/C=C/c2cc3ccccc3n3nnnc23)cc1` ?
Out: inactive

In: How did this test come out for `COc1cc(-c2n/c(=C\c3c(O)[nH]c4ccc(Cl)cc34)cc3c2=Nc2ccccc2-3)ccc1F` ?
Out: inactive

In: How did this test come out for `COc1cc2c(c(O)c1Cl)C(=O)c1c(O)cc(C[C@H](C)O)cc1[C@H]2[C@H]1c2cc(C[C@H](C)O)cc(O)c2C(=O)c2c1cc(OC)c(Cl)c2O` ?
Out: inactive

In: How did this test come out for `COc1ccc(C(=O)c2cc(C)c(OC)c(C)c2)c(OC)c1OC(=O)C(Cl)Cl` ?
Out: active

In: How did this test come out for `CCc1ccc(CNc2ccc(N3CCOCC3)c(C(=O)O)c2)cc1` ?
Out: inactive

In: How did this test come out for C=C1C(=O)O[C@H]2[C@H]1CC/C(CNC(=O)C(C)c1ccc(CC(C)C)cc1)=C\CC[C@@]1(C)O[C@@H]21 (stereo partly drawn) ?
Out: inactive

In: How did this test come out for `Nc1nc(Nc2ccccc2SSc2ccccc2Nc2nc(N)nc(-c3ccc(C(F)(F)F)cc3)n2)nc(-c2ccc(C(F)(F)F)cc2)n1` ?
Out: inactive

In: How did this test come out for O=C(N/N=C/c1ccc(Oc2ccccc2)cc1)c1cnn2c1NC(c1ccccc1)C2 (stereo not drawn) ?
Out: inactive

In: How did this test come out for `Cc1nn(-c2ccccc2)c(Oc2c(Cl)cccc2Cl)c1/C=N/N=c1\sc2ccccc2n1C` ?
Out: inactive

In: How did this test come out for `O=C(CCN1CCCC1)c1ccc([N+](=O)[O-])cc1` ?
Out: inactive

In: How did this test come out for `O=C(CCN1CCCC1)Nc1ccc2c(NCCCc3ccccc3)c3ccccc3nc2c1` ?
Out: inactive

In: How did this test come out for `CCOC(=O)[C@@H](C)C[C@H](Cc1ccccc1)NC(=O)c1csc([C@@H](C[C@H](C(C)C)N(C)C(=O)[C@@H](NC(=O)[C@H]2C[C@H](O[Si](C)(C)C(C)(C)C)CCN2C)C(C)C)OC(C)=O)n1` ?
Out: active

In: How did this test come out for `O=C(Cc1ccc(/C=C/C(=O)c2ncc[nH]2)cc1)Nc1ccc(Cl)cc1` ?
Out: inactive
